Ref: ChEMBL document CHEMBL1909603

Protocol Summary: Antioxidant activity assessed as hydroxyl radical scavenging activity by measuring malondialdehyde formation at 200 mg/ml after 90 mins by thiobarbituric acid method
Assay type: functional
Recorded Endpoint: Activity

• Cc1ccc(C(O)CNC(=O)Cc2cccnc2)cc1 (racemic) = 29%
• COc1cc(/C=C/C(=O)NCC(O)c2ccc(C)cc2)ccc1O (mixture of isomers) = 27%
• Cc1ccc(C(=O)CNC(=O)CCc2cccnc2)cc1 = 33%
• OC[C@@H](O)[C@@H](O)[C@H](O)[C@H](O)CO = 45%
• COc1ccc([C@@H](O)CNC(=O)/C=C/c2ccccc2)cc1 = 22%
• Cc1ccc(C(=O)CNC(=O)/C=C/c2ccc(O)cc2)cc1 = 29%
